target: human IgG (human); test: SPR sensorgram analysis
observed.property: Kd (nM)
Unit nM implied. Number only.

Ask: Which measured Kd value corresponds to DCAWHRGELVWCT [GFc-C35-3/15 (T5A, Y6W, T7H, N8R, N10E)] ?
Reply: 257
